# target-system: human JAK3 (Homo sapiens (Human))
# Sequence (P52333 whole entry): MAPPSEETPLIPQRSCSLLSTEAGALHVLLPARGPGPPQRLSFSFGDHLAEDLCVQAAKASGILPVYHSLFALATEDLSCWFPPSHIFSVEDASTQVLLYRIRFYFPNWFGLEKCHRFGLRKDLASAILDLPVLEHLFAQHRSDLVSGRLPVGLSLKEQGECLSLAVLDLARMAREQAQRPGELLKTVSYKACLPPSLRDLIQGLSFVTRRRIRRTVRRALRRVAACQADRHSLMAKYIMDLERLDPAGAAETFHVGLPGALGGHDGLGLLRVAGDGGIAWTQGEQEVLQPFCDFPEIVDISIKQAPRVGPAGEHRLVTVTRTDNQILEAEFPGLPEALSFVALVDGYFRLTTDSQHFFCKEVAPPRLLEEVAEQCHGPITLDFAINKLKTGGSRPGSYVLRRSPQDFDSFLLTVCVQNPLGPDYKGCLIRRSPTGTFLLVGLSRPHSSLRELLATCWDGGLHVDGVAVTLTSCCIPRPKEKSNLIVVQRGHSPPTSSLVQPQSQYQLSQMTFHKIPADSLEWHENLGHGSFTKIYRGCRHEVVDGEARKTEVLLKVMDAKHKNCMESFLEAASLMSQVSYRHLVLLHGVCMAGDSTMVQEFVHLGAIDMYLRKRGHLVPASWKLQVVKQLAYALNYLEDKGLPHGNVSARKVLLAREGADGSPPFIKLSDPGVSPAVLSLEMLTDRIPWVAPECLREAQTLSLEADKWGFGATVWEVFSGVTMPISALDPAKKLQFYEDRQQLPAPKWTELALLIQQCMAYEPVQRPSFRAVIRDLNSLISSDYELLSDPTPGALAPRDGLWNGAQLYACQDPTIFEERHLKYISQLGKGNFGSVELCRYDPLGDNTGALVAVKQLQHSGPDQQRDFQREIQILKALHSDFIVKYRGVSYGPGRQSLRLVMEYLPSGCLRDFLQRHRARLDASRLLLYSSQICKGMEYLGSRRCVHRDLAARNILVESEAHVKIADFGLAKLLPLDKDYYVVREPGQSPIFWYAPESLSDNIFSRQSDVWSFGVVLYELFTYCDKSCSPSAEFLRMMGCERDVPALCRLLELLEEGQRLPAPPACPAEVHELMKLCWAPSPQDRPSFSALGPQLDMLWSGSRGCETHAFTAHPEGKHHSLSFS
# assay-text: JAK3 kinase inhibitory activity, ADP Glo kinase assay
# condition-description: recombinant purified human JAK3, ATP 5 uM, Poly(Glu4,Tyr1) peptide, 1 hour 30° C.
pIC50: −log10 of the molar value.
Is pIC50 at least 9? Then t. If not, f.

Here are 3 molecules together with their reported answers.
                                   molecule  discrete_label
0  C=CC(=O)N1CC[C@H](F)[C@H](Oc2nc(Nc3ccc4ncsc4c3)nc3[nH]ccc23)C1 [Example 34]               f
1  C=CC(=O)N1CC[C@H](F)[C@H](Oc2nc(Nc3cnn(CC)c3)nc3[nH]ccc23)C1 (racemic) [Example 4]               t
2  C=CC(=O)N1CC[C@@H](F)[C@@H](Oc2nc(Nc3cnn(CC(F)F)c3)nc3[nH]ccc23)C1 [Example 6]               t

Does the molecule C=CC(=O)N1CC[C@@H](F)[C@@H](Oc2nc(Nc3cnn(C4CC4)c3)nc3[nH]ccc23)C1 [Example 8] have recorded pIC50 that is 9 or more?
t

Does the molecule C=CC(=O)N1CC[C@@H](F)[C@H](Oc2nc(Nc3cnn(CC(F)F)c3)nc3[nH]ccc23)C1 (racemic) [Example 2] have recorded pIC50 that is 9 or more?
t

Does the molecule C=CC(=O)N1CC[C@H](F)[C@H](Oc2nc(Nc3cnn(C4CCOCC4)c3)nc3[nH]ccc23)C1 [Example 33] have recorded pIC50 that is 9 or more?
f

Does the molecule C=CC(=O)N1CC[C@@H](F)[C@@H](Oc2nc(Nc3cc(C)ns3)nc3[nH]ccc23)C1 [Example 7] have recorded pIC50 that is 9 or more?
t

Does the molecule C=CC(=O)N1CC[C@@H](F)[C@H](Oc2nc(Nc3cnn(C4CC4)c3)nc3[nH]cc(Cl)c23)C1 (racemic) [Example 10] have recorded pIC50 that is 9 or more?
t

Does the molecule C=CC(=O)N1CC[C@H](F)[C@H](Oc2nc(Nc3cnn(C4CC4)c3)nc3[nH]ccc23)C1 [Example 35] have recorded pIC50 that is 9 or more?
f

Does the molecule C=CC(=O)N1CC[C@@H](F)[C@@H](Oc2nc(Nc3cnn(CC)c3)nc3[nH]cc(C)c23)C1 [Example 19] have recorded pIC50 that is 9 or more?
t

Does the molecule C=CC(=O)N1CC[C@H](F)[C@H](Oc2nc(Nc3cnoc3)nc3[nH]ccc23)C1 [Example 29] have recorded pIC50 that is 9 or more?
f

Does the molecule C=CC(=O)N1CC[C@@H](F)[C@H](Oc2nc(Nc3cnn(CC)c3)nc3[nH]cc(Cl)c23)C1 (racemic) [Example 9] have recorded pIC50 that is 9 or more?
t

Does the molecule C=CC(=O)N1CC[C@@H](F)[C@@H](Oc2nc(Nc3cnn(CC(F)F)c3)nc3[nH]cc(C)c23)C1 [Example 20] have recorded pIC50 that is 9 or more?
t

Does the molecule C=CC(=O)N1CC[C@H](F)[C@H](Oc2nc(Nc3cc(C)ns3)nc3[nH]ccc23)C1 [Example 32] have recorded pIC50 that is 9 or more?
f

Reference source: patent US11339167B2
